binding signal reference
# Subject Of Test: PF13_0097 D1 (PF3D7_1317200, AP2 domain transcription factor AP2-FG, putative) (Plasmodium falciparum)
# Sequence: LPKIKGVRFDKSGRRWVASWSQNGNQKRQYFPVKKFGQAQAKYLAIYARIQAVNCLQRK
# Cond: PBM; highest protein concentration obtained; buffer not given; scale: PBM E-score of the seed 8-mer

The following substances have reported results that may help.
{"Substance": "TGATCM / KGATCA [PF13_0097 Secondary motif 2]", "binding signal": "> 0.45"}
{"Substance": "TGCTCAA (double strand) [PF13_0097 Secondary motif 1]", "binding signal": "> 0.45"}
{"Substance": "TCACYCAR / YTGRGTGA [PF13_0097 Secondary motif 3]", "binding signal": "> 0.45"}

With those in mind, consider the next substance.
[in] Fill in: binding signal of AGCTCAGA (double strand) [PF13_0097 primary motif] is ___
[out] 0.489

Cited source: paper PMC2965767
